# SYSTEM_UNDER_TEST: Histone deacetylase 1 (Homo sapiens, UniProt Q13547)
# Sequence (Q13547 whole entry): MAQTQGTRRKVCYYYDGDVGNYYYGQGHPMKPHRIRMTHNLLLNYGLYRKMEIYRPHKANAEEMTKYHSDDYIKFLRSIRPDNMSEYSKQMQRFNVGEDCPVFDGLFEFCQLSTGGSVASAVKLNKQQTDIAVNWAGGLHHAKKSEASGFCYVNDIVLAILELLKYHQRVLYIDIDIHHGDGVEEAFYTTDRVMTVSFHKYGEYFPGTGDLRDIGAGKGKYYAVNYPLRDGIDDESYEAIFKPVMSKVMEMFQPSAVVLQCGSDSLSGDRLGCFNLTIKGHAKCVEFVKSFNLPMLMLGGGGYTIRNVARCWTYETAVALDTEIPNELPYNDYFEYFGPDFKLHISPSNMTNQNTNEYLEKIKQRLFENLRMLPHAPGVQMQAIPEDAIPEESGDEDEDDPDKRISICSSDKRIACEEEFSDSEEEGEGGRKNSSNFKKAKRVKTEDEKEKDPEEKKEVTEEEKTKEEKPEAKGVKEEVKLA
# TEST: Inhibition of human recombinant HDAC1 using Boc-lys(Ac)-AMC as substrate preincubated for 20 mins with substrate measured after 60 mins by fluorescence analysis
The reader will find reported log10 IC50 values listed item by item below.
Values are log10 of IC50 in µM.

{"STRUCTURE_STRING": "CO/N=C(\\Cc1ccc(O)c(Br)c1)C(=O)NCCS", "log10 IC50": -1.57}

In plain terms, `O=C(Cc1ccc(O)c(Br)c1)C(=O)NCCSSCCNC(=O)C(=O)Cc1ccc(O)c(Br)c1` has a documented log10 IC50 of 0.70

In plain terms, `COc1ccc(C/C(=N\O)C(=O)NCCS)cc1Br` has a documented log10 IC50 of -2.74

In plain terms, `CSCCNC(=O)C(=O)Cc1ccc(O)c(Br)c1` has a documented log10 IC50 of 0.86

In plain terms, `O=C(NCCS)/C(Cc1ccc(F)cc1)=N/O` has a documented log10 IC50 of -2.15

In plain terms, `N/N=C(\Cc1ccc(O)c(Br)c1)C(=O)NCCSSCCNC(=O)/C(Cc1ccc(O)c(Br)c1)=N/N` has a documented log10 IC50 of 0.79

====

# SYSTEM_UNDER_TEST: UniProt:Q9UBN7
# Sequence (Q9UBN7 whole entry): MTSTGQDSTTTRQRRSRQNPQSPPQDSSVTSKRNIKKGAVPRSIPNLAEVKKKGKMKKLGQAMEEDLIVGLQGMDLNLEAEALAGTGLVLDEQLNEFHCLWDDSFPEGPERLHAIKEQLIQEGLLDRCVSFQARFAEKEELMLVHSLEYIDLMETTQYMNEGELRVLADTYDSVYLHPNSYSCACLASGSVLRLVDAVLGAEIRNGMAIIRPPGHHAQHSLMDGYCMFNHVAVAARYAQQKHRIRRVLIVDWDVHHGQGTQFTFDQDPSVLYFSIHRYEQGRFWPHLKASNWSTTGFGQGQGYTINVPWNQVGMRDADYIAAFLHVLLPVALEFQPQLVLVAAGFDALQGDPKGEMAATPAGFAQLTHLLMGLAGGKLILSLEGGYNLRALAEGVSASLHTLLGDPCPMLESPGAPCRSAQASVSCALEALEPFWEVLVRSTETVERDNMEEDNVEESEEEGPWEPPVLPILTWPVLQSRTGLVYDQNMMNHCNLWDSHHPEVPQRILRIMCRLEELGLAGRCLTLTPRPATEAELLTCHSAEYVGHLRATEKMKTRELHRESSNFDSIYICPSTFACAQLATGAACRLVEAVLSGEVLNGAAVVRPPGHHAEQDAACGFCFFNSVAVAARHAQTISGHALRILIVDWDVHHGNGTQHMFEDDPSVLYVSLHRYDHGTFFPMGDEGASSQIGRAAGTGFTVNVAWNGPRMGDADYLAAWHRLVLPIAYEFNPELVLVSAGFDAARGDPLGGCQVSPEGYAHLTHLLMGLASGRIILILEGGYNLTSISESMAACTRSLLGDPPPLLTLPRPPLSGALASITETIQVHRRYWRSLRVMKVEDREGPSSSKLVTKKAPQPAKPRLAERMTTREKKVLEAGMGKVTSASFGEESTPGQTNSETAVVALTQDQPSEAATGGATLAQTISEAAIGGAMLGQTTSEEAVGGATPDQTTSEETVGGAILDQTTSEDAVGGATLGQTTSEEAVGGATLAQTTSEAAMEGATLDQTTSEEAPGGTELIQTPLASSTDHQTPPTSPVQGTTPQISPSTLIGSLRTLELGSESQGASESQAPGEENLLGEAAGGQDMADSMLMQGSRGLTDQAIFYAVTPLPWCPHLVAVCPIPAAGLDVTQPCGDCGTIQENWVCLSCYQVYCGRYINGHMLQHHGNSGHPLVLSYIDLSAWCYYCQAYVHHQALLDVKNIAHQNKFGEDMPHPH
# TEST: Inhibition of human recombinant HDAC6 using Boc-lys(Ac)-AMC as substrate preincubated for 20 mins with substrate measured after 60 mins by fluorescence analysis
QUANTITY_MEASURED: log10 of IC50 (log10 of the value in nM)
Values are log10 of IC50 in nM.

These recorded examples may help you get a feel for the data.
{"STRUCTURE_STRING": "O=C(NCCS)/C(Cc1cc(Br)c(O)c(Br)c1)=N/O", "SYSTEM_UNDER_TEST": "UniProt:Q9UBN7", "QUANTITY_MEASURED": "log10 of IC50", "OBSERVED": 2.90}
{"STRUCTURE_STRING": "O=C(NCCS)/C(Cc1ccc(F)c(Br)c1)=N/O", "SYSTEM_UNDER_TEST": "UniProt:Q9UBN7", "QUANTITY_MEASURED": "log10 of IC50", "OBSERVED": 2.81}

In plain terms, `O=C(NCCS)/C(Cc1ccccc1)=N/O` has a documented log10 of IC50 of 3.52

In plain terms, `CN(C)c1ccc(C/C(=N\O)C(=O)NCCS)cc1Br` has a documented log10 of IC50 of 2.85

In plain terms, `O=C(CCCNC(=O)/C(Cc1ccc(O)c(Br)c1)=N/O)NO` has a documented log10 of IC50 of 3.23

In plain terms, `O=C(NCCS)/C(Cc1cc(Br)cc([N+](=O)[O-])c1)=N/O` has a documented log10 of IC50 of 2.87

In plain terms, `COc1cc(C/C(=N\O)C(=O)NCCS)cc(Br)c1OC` has a documented log10 of IC50 of 2.71

In plain terms, `O=C(CCc1ccc(O)c(Br)c1)NCCSSCCNC(=O)CCc1ccc(O)c(Br)c1` has a documented log10 of IC50 of 4.31

In plain terms, `O=C(NCCS)/C(Cc1cccc([N+](=O)[O-])c1)=N/O` has a documented log10 of IC50 of 3.08

In plain terms, `COc1ccc(C/C(=N\O)C(=O)NCCS)cc1OC` has a documented log10 of IC50 of 3.43

In plain terms, `O=C(NCCS)/C(Cc1ccc(F)cc1)=N/O` has a documented log10 of IC50 of 3.46

In plain terms, `CO/N=C(\Cc1ccc(O)c(Br)c1)C(=O)NCCSSCCNC(=O)/C(Cc1ccc(O)c(Br)c1)=N/OC` has a documented log10 of IC50 of 3.98

In plain terms, `CO/N=C(\Cc1ccc(O)c(Br)c1)C(=O)NCCS` has a documented log10 of IC50 of 2.34

====

# TEST: Growth inhibition of human WI38 cells after 96 hrs by sulphorhodamine B assay
# Format: cell-based
# TEST_PARAMETERS: WI-38 cells
The reader will find reported GI50 at 96 h values listed item by item below.
Write the value in µM as a bare number.

{"COMPOUND": "N/N=C(\\Cc1ccc(O)c(Br)c1)C(=O)NCCS", "UNIT_OF_MEASURE": "µM", "GI50 at 96 h": 37.2}
{"COMPOUND": "O=C(NCCS)/C(Cc1ccc(F)c(Br)c1)=N/O", "UNIT_OF_MEASURE": "µM", "GI50 at 96 h": 7.72}
{"COMPOUND": "O=C(NCCS)/C(Cc1ccccc1)=N/O", "UNIT_OF_MEASURE": "µM", "GI50 at 96 h": 10.9}
{"COMPOUND": "O=C(Cc1ccc(O)c(Br)c1)C(=O)NCCS", "UNIT_OF_MEASURE": "µM", "GI50 at 96 h": 42.6}

Shift focus to the following entry.
In plain terms, O=C(NCCSSCCNC(=O)/C(Cc1ccc(O)c(Br)c1)=N/O)/C(Cc1ccc(O)c(Br)c1)=N/O [PSAMMAPLIN A] has a documented GI50 at 96 h of 3.44

====

# SYSTEM_UNDER_TEST: Histone deacetylase-like amidohydrolase (Alcaligenes sp. (strain DSM 11172) (Bordetella sp. (strain FB188)))
# Sequence (Q70I53 whole entry): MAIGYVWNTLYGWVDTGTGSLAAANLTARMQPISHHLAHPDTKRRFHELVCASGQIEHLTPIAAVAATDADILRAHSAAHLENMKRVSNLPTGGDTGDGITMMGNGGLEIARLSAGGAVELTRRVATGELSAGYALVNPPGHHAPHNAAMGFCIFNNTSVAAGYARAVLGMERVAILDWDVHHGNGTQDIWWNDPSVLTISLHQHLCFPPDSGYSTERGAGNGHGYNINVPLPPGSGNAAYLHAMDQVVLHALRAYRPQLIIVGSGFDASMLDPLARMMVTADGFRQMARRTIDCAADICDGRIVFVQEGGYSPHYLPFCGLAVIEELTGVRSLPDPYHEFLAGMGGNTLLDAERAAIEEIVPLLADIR
# TEST: Inhibition of Bordetella sp. (strain FB188) N-terminus His-tagged HDAH expressed in Escherichia coli BL21 (DE3)
# Set-up: species or system Alcaligenaceae bacterium FB188
QUANTITY_MEASURED: IC50 (µM)
Write the value in µM as a bare number.

These recorded examples may help you get a feel for the data.
{"STRUCTURE_STRING": "N/N=C(\\Cc1ccc(O)c(Br)c1)C(=O)NCCS", "UNIT_OF_MEASURE": "µM", "OBSERVED": 32}
{"STRUCTURE_STRING": "O=C(NCCS)/C(Cc1ccc(O)c(Br)c1)=N/O", "UNIT_OF_MEASURE": "µM", "OBSERVED": 30.2}
{"STRUCTURE_STRING": "O=C(CCNC(=O)/C(Cc1ccc(O)c(Br)c1)=N/O)NO", "UNIT_OF_MEASURE": "µM", "OBSERVED": 0.31}

Shift focus to the following entry.
In plain terms, `O=C(CCCNC(=O)/C(Cc1ccc(O)c(Br)c1)=N/O)NO` has a documented IC50 of 5.25

====

The reader will find reported GI50 at 96 h values listed item by item below.
# TEST: Growth inhibition of human WI38 cells after 96 hrs by sulphorhodamine B assay
# Assay type: cell-based
# TEST_PARAMETERS: WI-38 cells
Write the value in µM as a bare number.

These recorded examples may help you get a feel for the data.
{"STRUCTURE_STRING": "CO/N=C(\\Cc1ccc(O)c(Br)c1)C(=O)NCCS", "GI50 at 96 h (µM)": 24.2}
{"STRUCTURE_STRING": "COc1ccc(C/C(=N\\O)C(=O)NCCS)cc1Br", "GI50 at 96 h (µM)": 1.13}
{"STRUCTURE_STRING": "COc1cc(C/C(=N\\O)C(=O)NCCS)cc(Br)c1OC", "GI50 at 96 h (µM)": 4.31}

In plain terms, `O=C(NCCSSCCNC(=O)/C(Cc1ccc(F)c(Br)c1)=N/O)/C(Cc1ccc(F)c(Br)c1)=N/O` has a documented GI50 at 96 h of 1.8

====

# SYSTEM_UNDER_TEST: UniProt:Q13547
# TEST: Inhibition of human recombinant HDAC1 using Boc-lys(Ac)-AMC as substrate preincubated for 20 mins with substrate measured after 60 mins by fluorescence analysis
QUANTITY_MEASURED: pIC50
The scale used: pIC50 is minus the common logarithm of the concentration in molar units.

These recorded examples may help you get a feel for the data.
{"STRUCTURE_STRING": "COc1ccc(C/C(=N\\N)C(=O)NCCSSCCNC(=O)/C(Cc2ccc(OC)c(Br)c2)=N/N)cc1Br", "pIC50": 5.52}
{"STRUCTURE_STRING": "COc1cc(C/C(=N\\O)C(=O)NCCS)cc(I)c1OC", "pIC50": 9.00}
{"STRUCTURE_STRING": "CSc1ccc(C/C(=N\\O)C(=O)NCCS)cc1Br", "pIC50": 9.32}
{"STRUCTURE_STRING": "COc1ccc(CC(=O)C(=O)NCCS)cc1Br", "pIC50": 5.96}
{"STRUCTURE_STRING": "O=C(NCCS)/C(Cc1ccc(O)cc1)=N/O", "pIC50": 8.40}

UniProt:Q13547 pIC50 of `COc1ccc(C/C(=N\O)C(=O)NCCSC)cc1Br` is 4.63

UniProt:Q13547 pIC50 of `O=C(NCCS)/C(Cc1cc(Br)cc([N+](=O)[O-])c1)=N/O` is 8.30

UniProt:Q13547 pIC50 of `CN(C)c1ccc(C/C(=N\O)C(=O)NCCS)cc1Br` is 8.40

UniProt:Q13547 pIC50 of `COc1cc(C/C(=N\O)C(=O)NCCS)cc(Br)c1OC` is 9.00

UniProt:Q13547 pIC50 of `O=C(NCCS)/C(Cc1ccc(O)c(Br)c1)=N/O` is 9.05

UniProt:Q13547 pIC50 of `COc1ccc(C/C(=N\O)C(=O)NCCS)cc1OC` is 8.52

UniProt:Q13547 pIC50 of `CSCCNC(=O)/C(Cc1ccc(O)c(Br)c1)=N/N` is 4.30

UniProt:Q13547 pIC50 of `COc1ccc(C/C(=N\N)C(=O)NCCS)cc1Br` is 8.22

UniProt:Q13547 pIC50 of `O=C(Cc1ccc(O)c(Br)c1)C(=O)NCCS` is 6.40

UniProt:Q13547 pIC50 of `CSCCNC(=O)/C(Cc1ccc(O)c(Br)c1)=N/O` is 5.11

UniProt:Q13547 pIC50 of `CSc1ccc(C/C(=N\O)C(=O)NCCS)cc1` is 8.70

UniProt:Q13547 pIC50 of `CO/N=C(\Cc1ccc(OC)c(Br)c1)C(=O)NCCSSCCNC(=O)/C(Cc1ccc(OC)c(Br)c1)=N/OC` is 6.66

UniProt:Q13547 pIC50 of `COc1ccc(C/C(=N\O)C(=O)NCCS)cc1I` is 9.00

UniProt:Q13547 pIC50 of `CO/N=C(\Cc1ccc(O)c(Br)c1)C(=O)NCCSSCCNC(=O)/C(Cc1ccc(O)c(Br)c1)=N/OC` is 6.42

UniProt:Q13547 pIC50 of `COc1cc(C/C(=N\O)C(=O)NCCS)ccc1SC` is 9.22

UniProt:Q13547 pIC50 of `CO/N=C(\Cc1ccc(O)c(Br)c1)C(=O)NCCSC` is 4.96
